Values compiled from patent US6395275.

Biological target: T1, recombinant gp120 of HIV-1 strain IIIb (HIV-1 strain IIIb, UniProt P04578 33-511)
T1 construct: domain: gp120; also called IIIb-derived gp120; gp 120 (IIIB strain)
Experiment: SPR BIAcore, gp120 on chip;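 further: fab fragments flowed at 0.5 to 10 ug/ml over immobilized gp120, resonance units tracked during association and dissociation, equilibrium constants derived from the rate constants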
As shown below, each of these binders has a reported Ka value.
Write the answer as a number in M⁻¹, unit excluded.

composite Fab 4H/L42-1 (Fab, V domains shown) VH: LEQSGAEVKKPGASVKVSCQASGYRFSNFVIHWVRQAPGQRFEWMGWINPYNGNKEFSAKFQDRVTFTADTSANTAYMELRSLRSADTAVYYCARVGPYSWDDSPQDNYYMDVWGKGTTVIVSS VL: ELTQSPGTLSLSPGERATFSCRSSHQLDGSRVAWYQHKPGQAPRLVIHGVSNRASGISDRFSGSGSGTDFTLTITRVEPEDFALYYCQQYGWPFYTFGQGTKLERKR    4.81e+08
composite Fab H31/4L-14 (Fab, V domains shown) VH: LEQSGAEVKKPGASVKVSCQASGYRFSHFTVHWVRQAPGQRFEWHGWINPYNGNKEFSAKFQDRVTFTADTSANTAYMELRSLRSADTAVYYCARVGEWGWEMFRYDNYYMDVWGKGTTVIVSS VL: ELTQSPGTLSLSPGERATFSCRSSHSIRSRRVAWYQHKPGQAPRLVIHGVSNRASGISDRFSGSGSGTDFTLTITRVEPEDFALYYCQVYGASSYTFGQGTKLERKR    4.51e+10

// next item, Ka requested
Give the measured Ka of composite Fab H33/L42-17 (Fab, V domains shown) VH: LEQSGAEVKKPGASVKVSCQASGYRFSHFTLHWVRQAPGQRFEWHGWINPYNGNKEFSAKFQDRVTFTADTSANTAYMELRSLRSADTAVYYCARVGEWGWEMFRYDNYYMDVWGKGTTVIVSS VL: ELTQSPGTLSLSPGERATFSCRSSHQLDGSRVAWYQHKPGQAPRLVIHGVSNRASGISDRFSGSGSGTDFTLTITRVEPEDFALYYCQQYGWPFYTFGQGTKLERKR . 5.46e+09
